Ref: patent USRE37781E1

- study target: single-chain tethered dimer of HIV protease (Human immunodeficiency virus 1)
- procedure details: biochemical
- Assay type: biochemical
- condition summary: HIV protease inhibition; class symbols; read-out: Ki
pKi: −log10 of the molar value.
value kind: pKi

Recorded results for 2 molecules are shown here.
molecule | endpoint value
C=CCN1C(=O)N(CC2CC2)C(Cc2ccccc2)C(O)C(O)C1Cc1ccccc1 (stereo not drawn) [Example 3W] | > 8.00
CCCN1C(=O)N(Cc2ccc3ccccc3c2)C(Cc2ccccc2)C(O)C(O)C1Cc1ccccc1 (stereo not drawn) [Example 4T] | > 8.00

Proceeding to the next molecule to report its pKi.
Given item O=C1N(Cc2ccc(Cl)s2)C(Cc2ccccc2)C(O)C(O)C(Cc2ccccc2)N1Cc1ccc(Cl)s1 (stereo not drawn) [Example 6F] , the value recorded as its pKi is 6.00 to 8.00
